target: T1, Recombinant MBP-mutCALR Type 1 fusion protein (human); experiment: SPR, IgG captured, 1:1 fit, Exp. 2
T1 construct: custom made at Cepter; also called recombinant mutCALR protein
If the reported koff equals or exceeds 0.003 s⁻¹, assign 1 (yes). If not, assign 0 (no).

Quick check: does anti-mutCALR antibody clone 53 (antibody, human IgG1, lambda, V domains shown, human IgG1) VH: QVQLVQSGAEVKKPGASVKVSCKVSGYTLTELSMHWVRQAPGKGLEWMGGFDPEDGETIYAQKFQGRVTMTEDTSTDTAYMELSSLRSEDTAVYYCATDIQGLAEFDYWGQGTLVTVSS VL: QSALTQPRSVSGSPGQSVTISCTGTNTDVGAYIDVSWYQQHPGKAPKLIIYDVSKWPSGVPDRFSGSKSGNTASLTISGLQAEDEADYYCCSYAGNHSFSFGGGTKVTVLG have koff greater than or equal to 0.003 s⁻¹?
1 (yes)

Quick check: does anti-mutCALR antibody clone 59 (antibody, human IgG1, lambda, N297A, V domains shown, human IgG1 N297A variant of clone 6) VH: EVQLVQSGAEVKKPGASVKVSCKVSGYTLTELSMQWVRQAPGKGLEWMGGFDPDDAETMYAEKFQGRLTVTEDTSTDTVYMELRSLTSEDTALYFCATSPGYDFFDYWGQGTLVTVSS VL: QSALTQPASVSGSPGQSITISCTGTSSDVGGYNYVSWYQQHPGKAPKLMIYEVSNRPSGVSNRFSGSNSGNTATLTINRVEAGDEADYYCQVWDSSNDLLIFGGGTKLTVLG have koff greater than or equal to 0.003 s⁻¹?
0 (no)

Quick check: does anti-mutCALR antibody clone 173 (antibody, human IgG1, lambda, N297A, V domains shown) VH: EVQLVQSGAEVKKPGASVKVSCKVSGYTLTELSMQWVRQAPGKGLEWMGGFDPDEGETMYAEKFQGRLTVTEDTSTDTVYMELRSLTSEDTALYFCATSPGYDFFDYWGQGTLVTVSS VL: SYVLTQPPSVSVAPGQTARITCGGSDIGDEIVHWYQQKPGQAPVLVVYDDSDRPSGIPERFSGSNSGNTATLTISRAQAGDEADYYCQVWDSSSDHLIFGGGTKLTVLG have koff greater than or equal to 0.003 s⁻¹?
1 (yes)

Quick check: does anti-mutCALR antibody clone 83 (antibody, human IgG1, lambda, N297A, V domains shown, human IgG1 N297A variant of clone 6) VH: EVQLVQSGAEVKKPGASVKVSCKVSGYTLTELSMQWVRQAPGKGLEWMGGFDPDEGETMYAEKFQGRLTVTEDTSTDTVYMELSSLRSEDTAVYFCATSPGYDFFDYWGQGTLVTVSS VL: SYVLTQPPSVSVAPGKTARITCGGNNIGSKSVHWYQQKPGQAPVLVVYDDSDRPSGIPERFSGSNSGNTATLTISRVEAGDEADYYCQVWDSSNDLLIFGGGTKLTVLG have koff greater than or equal to 0.003 s⁻¹?
1 (yes)

Quick check: does anti-mutCALR antibody clone 130 (antibody, human IgG1, lambda, N297A, V domains shown, human IgG1 N297A variant of clone 15) VH: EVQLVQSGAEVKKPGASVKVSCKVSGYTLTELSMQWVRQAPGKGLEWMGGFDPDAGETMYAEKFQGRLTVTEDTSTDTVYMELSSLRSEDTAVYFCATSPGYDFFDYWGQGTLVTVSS VL: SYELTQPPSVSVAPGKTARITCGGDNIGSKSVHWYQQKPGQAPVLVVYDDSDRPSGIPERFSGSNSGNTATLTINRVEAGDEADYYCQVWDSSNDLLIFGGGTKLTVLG have koff greater than or equal to 0.003 s⁻¹?
1 (yes)
